- study system: Lipopolysaccharide (LPS)
- assay notes: Displacement of dansyl-PMB from LPS by isothermal titration calorimetry
Where a SMILES comes first, the peptide text is derived from it. Bridges are numbered along the chain shown (N, C = ends). [ ]: non-standard residue; d: D form. The star is where a group is joined. Octanoyl = CCCCCCCC(=O)*; Dab = NCC[C@H](N)C(=O)O
readout: IC50 (µM)
Express your answer in µM, writing the number without its unit.

Reported IC50 for CCCCCCCC(=O)N[C@@H](CCN)C(=O)N[C@H](C(=O)N[C@@H](CCN)C(=O)N[C@H]1CCNC(=O)[C@H]([C@@H](C)O)NC(=O)[C@H](CCN)NC(=O)[C@H](CCN)NC(=O)[C@H](CC(C)C)NC(=O)CNC(=O)[C@H](CCN)NC1=O)[C@@H](C)O (Octanoyl-[Dab]T[Dab][Dab][Dab]GL[Dab][Dab]T; lactam 4-C) was 11

Now let's try a different one.
Record CCCCCCCC(=O)N[C@H](C(=O)N[C@@H](CCN)C(=O)N[C@H]1CCNC(=O)[C@H]([C@@H](C)O)NC(=O)[C@H](CCN)NC(=O)[C@H](CCN)NC(=O)[C@H](CC(C)C)NC(=O)[C@@H](Cc2ccccc2)NC(=O)[C@H](CCN)NC1=O)[C@@H](C)O (stereo in doubt; 231) [Octanoyl Polymixin B nonapeptide] . Reported IC50: 12

###

- Test system: Escherichia coli
- assay notes: Antimicrobial activity against Escherichia coli
- Format: functional
Where a SMILES comes first, the peptide text is derived from it. Bridges are numbered along the chain shown (N, C = ends). [ ]: non-standard residue; d: D form. The star is where a group is joined. Octanoyl = CCCCCCCC(=O)*; Dab = NCC[C@H](N)C(=O)O
readout: MIC (µM)
// units = µM; emit number, no label

// MIC value for CCCCCCCC(=O)N[C@@H](CCN)C(=O)N[C@H](C(=O)N[C@@H](CCN)C(=O)N[C@H]1CCNC(=O)[C@H]([C@@H](C)O)NC(=O)[C@H](CCN)NC(=O)[C@H](CCN)NC(=O)[C@H](C)NC(=O)[C@@H](C)NC(=O)[C@H](CCN)NC1=O)[C@@H](C)O : 2

Lab note: measured MIC of CC(C)C[C@@H]1NC(=O)[C@@H](Cc2ccccc2)NC(=O)[C@H](CCN)NC(=O)[C@@H](NC(=O)[C@H](CCN)NC(=O)[C@@H](NC(=O)[C@H](CCN)NC(=O)C2CCCCCCCCCCC2)[C@@H](C)O)CCNC(=O)[C@H]([C@@H](C)O)NC(=O)[C@H](CCN)NC(=O)[C@H](CCN)NC1=O was 2

Memo: CC(C)C[C@@H]1NC(=O)[C@@H](CC(C)C)NC(=O)[C@H](CCN)NC(=O)[C@@H](NC(=O)[C@H](CCN)NC(=O)[C@@H](NC(=O)[C@H](CCN)NC(=O)CCCC2CCCCC2)[C@@H](C)O)CCNC(=O)[C@H]([C@@H](C)O)NC(=O)[C@H](CCN)NC(=O)[C@H](CCN)NC1=O , reported MIC: 2

For CC(C)C[C@@H]1NC(=O)[C@@H](Cc2ccccc2)NC(=O)[C@H](CCN)NC(=O)[C@@H](NC(=O)[C@H](CCN)NC(=O)[C@@H](NC(=O)[C@H](CN)NC(=O)O)[C@@H](C)O)CCNC(=O)[C@H]([C@@H](C)O)NC(=O)[C@H](CCN)NC(=O)[C@H](CCN)NC1=O the compound record lists MIC as 8

Lab book: MIC of CCCCCCCC(=O)N[C@@H](CCN)C(=O)N[C@H](C(=O)N[C@@H](CCN)C(=O)N[C@H]1CCNC(=O)[C@H]([C@@H](C)O)NC(=O)[C@H](CCN)NC(=O)[C@H](CCN)NC(=O)[C@H](CC(C)C)NC(=O)CNC(=O)[C@H](CCN)NC1=O)[C@@H](C)O (Octanoyl-[Dab]T[Dab][Dab][Dab]GL[Dab][Dab]T; lactam 4-C) noted as 2

Next:
Lab book: MIC of CCCCCCCC(=O)N[C@H]1CCNC(=O)[C@H]([C@@H](C)O)NC(=O)[C@H](CCN)NC(=O)[C@H](CCN)NC(=O)[C@H](CC(C)C)NC(=O)[C@@H](Cc2ccccc2)NC(=O)[C@H](CCN)NC1=O noted as 128

In plain terms, CC(C)C[C@@H]1NC(=O)[C@@H](Cc2ccccc2)NC(=O)[C@H](CCN)NC(=O)[C@@H](NC(=O)[C@H](CCN)NC(=O)[C@@H](NC(=O)[C@H](CCN)NC(=O)C(c2ccccc2)C2CCCC2)[C@@H](C)O)CCNC(=O)[C@H]([C@@H](C)O)NC(=O)[C@H](CCN)NC(=O)[C@H](CCN)NC1=O (some centres not stated) has a documented MIC of 8
